- Test system: FLT4;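 note: KINOMEscan kinase panel screen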
- test.parameters: concentration: 1 μM, replicates: in singlicate; n = 1
For each entry below, report its %Inh value.
One number for each entry, in %.

Here's what some known entries look like.
// query Look at this molecule and give its reported %Inh. Cc1cc(Nc2nc(-c3cccc(C)n3)nc3ccccc23)ccn1 [GW872411]
// result 0

// query Same read-out for O=C(Nc1n[nH]c2nc(-c3ccccc3)c(Br)cc12)C1CC1 [SB-708998] ?
// result 26

// query Same read-out for O=c1cc(N2CCOCC2)nc2n(Cc3ccc(F)c(Cl)c3)ccn12 [GSK2297099] ?
// result 0

For every listed record, write down its %Inh.
1. O=C1NC(=O)C(c2ccccc2)=C1Nc1cccc(O)c1 [SB-390534]
2. Cc1c(Cn2c(C)nn3c(=O)cc(N4CCO[C@H](C)C4)nc23)cccc1C(F)(F)F [GSK2373690]
3. COC(=O)c1c(-c2ccccc2)c2cc(C)ccc2c(=O)n1Cc1ccccc1

// result
0
0
0

For every listed record, write down its %Inh.
1. Cc1nnc(-c2ccc(C)c(-c3ccc(C(=O)O)cc3)c2)o1 [GW608005]
2. COc1ccc(-n2cnc3c(N)ncnc32)cc1 [SKF-97236]
3. Nc1nccc2scc(-c3ccc4c(c3)CCN4C(=O)Cc3ccccc3)c12 [GSK2576924]
4. COc1cc(Nc2ccnc3ccc(C(F)(F)F)cc23)cc(OC)c1OC [GW577382]
5. O=C(NCCNc1ccnc(Nc2ccc(F)cc2)n1)Nc1ccc2c(c1)OCO2 [GSK1379882]

// result
[12, 22, 21, 3, 9]

For every listed record, write down its %Inh.
1. CN1C(=O)C(Nc2cc(Cl)c(O)c(Cl)c2)=C(c2ccc(Cl)cc2)C1=O [SB-404321]
2. CCC(=O)c1c(-c2ccccc2)c2cc(Cl)ccc2c(=O)n1Cc1cc(S(C)(=O)=O)n(CCC(C)(C)O)n1
3. Cc1nc(N(C)[C@H]2CN(C(=O)CC#N)CC[C@H]2C)c2cc[nH]c2n1
4. CCCC(=O)Nc1n[nH]c2ncc(-c3cccc4ccccc34)cc12 [SB-642057]
5. Nc1ncnc2c1ncn2-c1cccc(F)c1 [SKF-97560]
6. Cc1ccc(Oc2ccc(Nc3ncnc4cc[nH]c34)cc2C)cn1
7. CCn1c(-c2ccoc2)nc2cnccc21 [SB-733887]

// result
[0, 15, 15, 1, 19, 0, 10]

// query Look at this molecule and give its reported %Inh. COc1ccc(CNC(=O)NC2CCN(c3ccnc(Nc4ccc(F)cc4)n3)C2)cc1 (stereo not shown) [GSK1379706]
// result 0
